// reported protein stability index for each item listed
B1: PBXIP1 (parent)
chain: EKQKQPRWREGTKDSHDPLPSWAE

# Variants of: B1
# assay overview: protein stability index of a GFP-peptide fusion (GPS, HEK-293T) (PSI 1-6); higher = more stable;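 note: lentivirally expressed fusions sorted by FACS into six bins by GFP to DsRed ratio, PSI derived from sequencing read proportions per bin multiplied by bin number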
# measurement setup: c terminus: a fixed tail appended
Enter a number only.

Reference set, count: 5
mutation key: G11E
measured value: 1.15

mutation key: E10R
measured value: 2.2

mutation key: Q5N
measured value: 2.1

mutation key: W22Q
measured value: 5.57

mutation key: E24A
measured value: 2.62

May I ask what protein stability index has been recorded for H16E ?
3.06
